target: T1, gH/gL/UL128/UL130/UL131A pentamer complex expressed from MVA-PC in BHK-21 cells (human cytomegalovirus, UniProt P12824 24-743; P16832 31-278; P16837 28-171; P16772 1-214; F5HET4 19-129); assay: FC competition, MVA-PC BHK-21; unlabelled row Ab; competitor: biotinylated 13B5
T1 construct: whole, on cells
quantity_name: Binding Inhibition (%)

binder | quantity_name | quantity_unit | numeric_readout
18F10 (antibody, V domains shown, also called NAb 18F10) VH: QVTLKESGPGILQPSQTLSLTCSFSGFSLSTYGIGIGWIRQPSGKGLEWLAHIWWNDNKNYNTALKSRLTISKDPSNNQVFLKIASVDTADTATYFCARTGYFDVWGAGTTVTVSS VL: DVVLTQTPLSLPVSLGDQVSISCSSSQSLVHSNGNTYIHWYLQKPGQSPKLLIYTVSNRFSGVPDRFSGSGSGTDFTLKISRVEAEDLGLYFCSQSTHVPYTFGGGTKLEIK | Binding Inhibition (%) | % | 0
12E2 (antibody, V domains shown, also called NAb 12E2) VH: EVKLVESGGGLVQPGGSLKLSCATSGFTFSDYYMFWVRQTPEKKLEWVAYISNGGGSTYYPDTVKGRFTISRDNDKNTLYLQMSRLKSDDTALYYCVRPKRDFQYLYAMDYWGQGTSVTVSS VL: DIVLTQSPASLAVSLGQRATISCRASKSVSTSGYSYMHWYQQKPGQSPKLLIYLASNLESGVPARFSGSGSGTDFTLNIHPVEDEDAATYYCQHSRELPWTFGGGTKLEIK | Binding Inhibition (%) | % | 0
1B2 (antibody, V domains shown, also called NAb 1B2) VH: EVQLVESGGVLVKPGGSLKLSCAASGFTFSDYYMYWVRQTPEKRLEWVATISDDGNYTNYPDSVKGRFTISRDNAKNNLYLQMSSLKSEDTAMYYCARGWLLPVFAYWGQGTLVTVSA VL: DIVLTQSPATLSVTPGDSVSLSCRASQSIGNNLHWYQQKSHESPRLLIKYTSQSISGIPSRFSGSGSGTDFTLNINSVETEDFGVYFCQQSNRWPWTFGGGTKLEIK | Binding Inhibition (%) | % | 0

The reported numbers originate from patent US20180230200A1.
